Field: pIC50. Provide a value for each of the molecules that follow.
system: HAP1 MTAP-deleted cell line; test: SDMA in-cell western assay, HAP1 MTAP-deleted; assay type: cell-based; conditions: Homo sapiens, HAP1 MTAP-deleted (MTAP-null) cell line
pIC50: −log10 of the molar value.

Below are worked cases with known answers.
INSERT INTO assay_data (molecule, assayed_target, measured_value) VALUES
  ('CCOc1nc(N2CCN(C(=O)OC)CC2)ccc1C(=O)NC[C@@H](O)[C@@H]1Cc2ccc(OCc3cnco3)cc2CN1 [Compound 16]', 'HAP1 MTAP-deleted cell line', '> 6.00'),
  ('Cc1ncoc1COc1ccc2c(c1)CN[C@H]([C@H](O)CNC(=O)c1ccnc(NC3CCC3)c1)C2 [Compound 15]', 'HAP1 MTAP-deleted cell line', '> 6.00'),
  ('CCOc1cc(C(=O)N2C3CCC2COC3)ccc1C(=O)NC[C@@H](O)[C@@H]1Cc2ccc(OCc3ccncc3)cc2CN1 [Compound 73]', 'HAP1 MTAP-deleted cell line', '5.00 to 6.00'),
  ('CC(=O)N1CC(Nc2cc(C(=O)NC[C@@H](O)[C@@H]3Cc4ccc(OCc5ocnc5C)cc4CN3)nc(N3CCC(C)CC3)n2)C1 [Compound 62]', 'HAP1 MTAP-deleted cell line', '> 6.00'),
  ('O=C(NC[C@@H](O)[C@@H]1Cc2ccc(OCc3cnco3)cc2CN1)c1ccc(C(=O)N2[C@@H]3CCC[C@H]2COC3)cc1 [Compound 7]', 'HAP1 MTAP-deleted cell line', '5.00 to 6.00');

Could you report pIC50 for every entry in the following list?
1. Cc1ncoc1COc1ccc2c(c1)CN[C@H]([C@H](O)CNC(=O)c1cc(NC3CCC3)ccn1)C2 [Compound 35]
2. Cc1ncoc1COc1ccc2c(c1)CN[C@H]([C@H](O)CNC(=O)c1cc(NC3CCC3)nc(C3CCN(C(C)C)CC3)c1)C2 [Compound 78]

["> 6.00", "> 6.00"]

---

Field: IC50. Provide a value for each of the compounds that follow.
system: HAP1 MTAP-deleted cell line; experiment: SDMA in-cell western assay, HAP1 MTAP-deleted; type: cell-based; settings: Homo sapiens, HAP1 MTAP-deleted (MTAP-null) cell line

INSERT INTO results (compound, measured_value) VALUES
  ('O=C(NC[C@@H](O)[C@@H]1Cc2ccc(OCc3cnco3)cc2CN1)c1ccnc(NC2CCC2)c1 [Compound 19]', '1000 to 10000 nM');

Could you report IC50 for every entry in the following list?
1. CC(=O)N1CCC(Nc2cc(C(=O)NC[C@@H](O)[C@@H]3Cc4ccc(OCc5ocnc5C)cc4CN3)cc(N3CCN(C(C)C)CC3)n2)CC1 [Compound 71]
2. CC(=O)N1CCC(Nc2cc(C(=O)NC[C@@H](O)[C@@H]3Cc4ccc(OCc5ocnc5C)cc4CN3)nc(N3CCN(C(C)C)CC3)n2)CC1 [Compound 72]
3. CC(=O)N1CC2(CC(Nc3cc(C(=O)NC[C@@H](O)[C@@H]4Cc5ccc(OCc6ocnc6C)cc5CN4)nc(N4CCCCC4)n3)C2)C1 [Compound 48]
4. CC(=O)N1CCC(Nc2cc(C(=O)NC[C@@H](O)[C@@H]3Cc4ccc(OCc5ocnc5C)cc4CN3)nc(N3CCCC3)n2)CC1 [Compound 81]
5. CCOc1cc(C(=O)N2[C@@H]3CCC[C@H]2COC3)ccc1C(=O)NC[C@@H](O)[C@@H]1Cc2ccc(OCc3ccnn3C)cc2CN1 [Compound 6]

["1000 to 10000 nM", "< 1000 nM", "< 1000 nM", "< 1000 nM", "< 1000 nM"]

---

Field: IC50. Provide a value for each of the compounds that follow.
tested on: HAP1 MTAP-deleted cell line; assay: SDMA in-cell western assay, HAP1 MTAP-deleted; format: cell-based; details: Homo sapiens, HAP1 MTAP-deleted (MTAP-null) cell line

Below are worked cases with known answers.
INSERT INTO results (compound, measured_value) VALUES
  ('CC(=O)N1CC(Nc2cc(C(=O)NC[C@@H](O)[C@@H]3Cc4ccc(OCc5ocnc5C)cc4CN3)nc(N3CCCC3)n2)C1 [Compound 61]', '< 1000 nM'),
  ('CCN(C)c1cc(C(=O)NC[C@@H](O)[C@@H]2Cc3ccc(OCc4ocnc4C)cc3CN2)cc(NC2CCC2)n1 [Compound 24]', '< 1000 nM'),
  ('Cc1ncoc1COc1ccc2c(c1)CN[C@H]([C@H](O)CNC(=O)c1cccc(NC3CCC3)c1)C2 [Compound 28]', '< 1000 nM'),
  ('CCOc1cc(C(=O)N2[C@@H]3CCC[C@H]2COC3)ccc1C(=O)NC[C@@H](O)[C@@H]1Cc2ccc(OCc3ocnc3C)cc2CN1 [Compound 10]', '< 1000 nM'),
  ('CC(=O)N1CC(Nc2cc(C(=O)NC[C@H](O)[C@@H]3Cc4ccc(OCc5ocnc5C)cc4CN3)nc(N3CCCCC3)n2)C1 [Compound 64]', '1000 to 10000 nM'),
  ('CC(=O)N1CCC(Nc2cc(C(=O)NC[C@@H](O)[C@@H]3Cc4ccc(OCc5ocnc5C)cc4CN3)nc(N3CCCCC3)n2)CC1 [Compound 50]', '< 1000 nM'),
  ('COCCN(C)c1cc(C(=O)NC[C@@H](O)[C@@H]2Cc3ccc(OCc4ocnc4C)cc3CN2)cc(NC2CN(C(C)=O)C2)n1 [Compound 69]', '1000 to 10000 nM');

Then there is this compound:
For the compound CCOc1cc(C(=O)N2[C@@H]3CCC[C@H]2COC3)ccc1C(=O)NC[C@@H](O)[C@@H]1Cc2ccc(OCc3cnco3)cc2CN1 [Compound 13] , give its measured IC50 value.
< 1000 nM

---

molecular target: PRMT5 (Homo sapiens, UniProt O14744); construct: purchased Viva (custom protein); assay: PRMT5 inhibition assay with no cofactor; assay type: biochemical; details: against PRMT5 with no cofactor; read-out: No Co-factor IC50
Sequence (O14744 whole entry): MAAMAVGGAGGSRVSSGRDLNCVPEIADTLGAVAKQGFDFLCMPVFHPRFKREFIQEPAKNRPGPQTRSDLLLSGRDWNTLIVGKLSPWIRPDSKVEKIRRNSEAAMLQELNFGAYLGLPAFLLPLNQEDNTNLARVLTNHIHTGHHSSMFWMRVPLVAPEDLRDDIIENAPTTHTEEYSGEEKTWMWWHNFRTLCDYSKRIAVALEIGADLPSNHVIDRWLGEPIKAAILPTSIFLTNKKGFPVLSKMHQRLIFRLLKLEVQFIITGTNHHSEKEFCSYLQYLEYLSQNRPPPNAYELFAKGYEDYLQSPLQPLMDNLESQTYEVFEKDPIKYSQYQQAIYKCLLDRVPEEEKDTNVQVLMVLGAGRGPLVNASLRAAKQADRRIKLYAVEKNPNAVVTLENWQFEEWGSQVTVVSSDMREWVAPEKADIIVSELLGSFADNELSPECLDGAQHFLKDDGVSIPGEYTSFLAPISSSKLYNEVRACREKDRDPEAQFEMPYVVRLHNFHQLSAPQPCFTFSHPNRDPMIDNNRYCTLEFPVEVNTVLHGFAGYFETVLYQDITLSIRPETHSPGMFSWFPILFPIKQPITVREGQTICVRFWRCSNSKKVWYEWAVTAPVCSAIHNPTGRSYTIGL
Sequence (Q9BQA1 whole entry partner): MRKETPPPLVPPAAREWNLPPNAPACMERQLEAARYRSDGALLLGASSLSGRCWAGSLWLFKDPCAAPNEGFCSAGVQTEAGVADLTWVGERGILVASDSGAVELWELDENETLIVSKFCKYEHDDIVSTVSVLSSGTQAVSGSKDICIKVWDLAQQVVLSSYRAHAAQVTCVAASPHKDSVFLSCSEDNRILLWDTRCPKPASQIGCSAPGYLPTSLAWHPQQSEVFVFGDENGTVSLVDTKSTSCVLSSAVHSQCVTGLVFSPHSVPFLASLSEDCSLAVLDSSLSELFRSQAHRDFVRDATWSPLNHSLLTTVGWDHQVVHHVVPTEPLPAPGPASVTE
Property Name: IC50

INSERT INTO assay_data (compound, property_name, measured_value) VALUES
  ('Cn1nccc1COc1ccc2c(c1)CN[C@H]([C@H](O)CNC(=O)c1ccc(C(=O)N3[C@@H]4CCC[C@H]3COC4)cc1)C2 [Compound 9]', 'IC50', '500 to 5000 nM');

Could you report IC50 for every entry in the following list?
1. Cc1ncoc1COc1ccc2c(c1)CN[C@H]([C@H](O)CNC(=O)c1ccc3c(c1)CCN(C(=O)c1ccc(Br)cc1)C3)C2 [Compound 20]
2. Cn1nccc1COc1ccc2c(c1)CN[C@H]([C@H](O)CNC(=O)c1ccc(C(=O)N3CCOCC3)cc1)C2 [Compound 2]
3. Cc1ncoc1COc1ccc2c(c1)CN[C@H]([C@H](O)CNC(=O)c1ccnc(NC3CC4(CCC4)C3)c1)C2 [Compound 46]
4. Cc1ncoc1COc1ccc2c(c1)CN[C@H]([C@H](O)CNC(=O)c1cc(NC3CCC3)nc(N3CCCCC3)n1)C2 [Compound 49]
5. COc1ccc(C(=O)N2CCc3cc(C(=O)NC[C@@H](O)[C@@H]4Cc5ccc(OCc6cnco6)cc5CN4)ccc3C2)cc1 [Compound 74]

1. 50 to 500 nM
2. 500 to 5000 nM
3. 50 to 500 nM
4. 50 to 500 nM
5. 50 to 500 nM

---

target: PRMT5 (Homo sapiens); construct: purchased Viva (custom protein); assay: PRMT5 inhibition assay with MTA as cofactor; assay type: biochemical; details: against PRMT5 with MTA as cofactor
Property Name: IC50

Below are worked cases with known answers.
INSERT INTO measurements (molecule, assayed_target, property_name, measured_value) VALUES
  ('Cc1ncoc1COc1ccc2c(c1)CN[C@H]([C@H](O)CNC(=O)c1cc(NC3CCC3)nc(N3CCCCC3)c1)C2 [Compound 31]', 'PRMT5 (Homo sapiens)', 'IC50', '50 to 500 nM'),
  ('Cc1ncoc1COc1ccc2c(c1)CN[C@H]([C@H](O)CNC(=O)c1cc(NC3CC4(CCC4)C3)nc(N3CCN(C(=O)C4CC4)CC3)c1)C2 [Compound 42]', 'PRMT5 (Homo sapiens)', 'IC50', '50 to 500 nM'),
  ('Cc1ncoc1COc1ccc2c(c1)CN[C@H]([C@H](O)CNC(=O)c1cc(NC3CC4(CCC4)C3)nc(N3CCN(C(C)C)CC3)n1)C2 [Compound 86]', 'PRMT5 (Homo sapiens)', 'IC50', '< 50 nM'),
  ('COCCN(C)c1cc(C(=O)NC[C@@H](O)[C@@H]2Cc3ccc(OCc4ocnc4C)cc3CN2)cc(NC2CCC2)n1 [Compound 33]', 'PRMT5 (Homo sapiens)', 'IC50', '50 to 500 nM'),
  ('CC(=O)N1CC(Nc2cc(C(=O)NC[C@@H](O)[C@@H]3Cc4ccc(OCc5ocnc5C)cc4CN3)nc(N3CC4CC(C4)C3)n2)C1 [Compound 51]', 'PRMT5 (Homo sapiens)', 'IC50', '< 50 nM');

Could you report IC50 for every entry in the following list?
1. COCCN(C)c1nc(NC2COC2)cc(C(=O)NC[C@@H](O)[C@@H]2Cc3ccc(OCc4ocnc4C)cc3CN2)n1 [Compound 37]
2. CCOc1nc(N2CCN(C(=O)OC)CC2)ccc1C(=O)NC[C@@H](O)[C@@H]1Cc2ccc(OCc3cnco3)cc2CN1 [Compound 16]
3. COc1ccc(C(=O)N2CCc3cc(C(=O)NC[C@@H](O)[C@@H]4Cc5ccc(OCc6ccnn6C)cc5CN4)ccc3C2)cc1 [Compound 77]

500 to 5000 nM
< 50 nM
< 50 nM

Source of measurements: patent US12403137B2
